The entries below are paired with their reported growth inhibition.
- testProtocol: NCI Yeast Anticancer Drug Screen. Data for the cln2 rad14 strain (AID 165);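 also: 0% = growth equal to vehicle treated cultures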
- particulars: S. cerevisiae cln2 rad14 strain, at 50.0 µM, hits give high values
About 79,000 compounds went through this panel and 15% of them were active in at least one assay; those are over-represented in the sample as a whole.
Please reply with the bare figure in % and do not write the unit itself.

molecule: O=C1OCc2nc3c(c(-c4ccccc4C(F)(F)F)c21)C(=O)OC3
growth inhibition, %: -0.85
--
molecule: CC(C)C(=O)OC1(Cc2cccc[n+]2C)CCCCC1
growth inhibition, %: 27.4
--
molecule: CCCC(=O)NC(Nc1ccc(S(=O)(=O)Nc2nc(C)cc(C)n2)cc1)(C(F)(F)F)C(F)(F)F
growth inhibition, %: 13.2
--
molecule: CNc1ccccc1C(=O)N/N=C/C1CCCCC1
growth inhibition, %: -6.85

Q: What value of measured growth inhibition is listed for C=CCc1oc(C)nc1CCCC ?
A: 27.4

Q: What value of measured growth inhibition is listed for C/C=C/c1nc2c(c(=O)n(C)c(=O)n2C)n1C ?
A: -28.8

Q: What value of measured growth inhibition is listed for O=C(Cc1ccccc1)NCc1ccc(Cl)cc1 ?
A: -5.7

Q: What value of measured growth inhibition is listed for CN(Cc1ccccc1)C(OCc1ccccc1)c1ccccc1 (configuration not stated) ?
A: -8.3

Q: What value of measured growth inhibition is listed for CCCCN1CCSC1=S ?
A: 98

Q: What value of measured growth inhibition is listed for COC(=O)C1(C(=O)OC)CC(=O)c2c(OC(=O)c3cccc(OC)c3C#N)ccc(OC(=O)c3cccc(OC)c3C#N)c2C1 ?
A: -4.35

Q: What value of measured growth inhibition is listed for NC(=O)N/N=C(\CC1OC(=O)c2ccccc21)c1ccc([N+](=O)[O-])cc1 (configuration not stated) ?
A: 3.85

Q: What value of measured growth inhibition is listed for CCSC1=C(SCC)C(=O)C(SCC)=C(SCC)C1=O ?
A: -22.4

###

- testProtocol: NCI Yeast Anticancer Drug Screen. Data for the mlh1 rad18 strain (AID 175)
- particulars: S. cerevisiae mlh1 rad18 strain growth inhibition; at 50.0 µM; hits give high values
The panel holds about 79,000 compounds, 15% with a hit somewhere; the sample as a whole holds those more often.
readout: growth inhibition (%)
Please reply with the bare figure in % and do not write the unit itself.

// below: answered compounds
compound: c1ccc(-c2cc3ccccc3c(-c3ccccc3)c2-c2ccccc2)cc1
growth inhibition [%]: -15.9
--
compound: NCCNC(c1ccccc1)C(O)c1ccccc1 (stereo unspecified)
growth inhibition [%]: -4.25
--
compound: COC(=O)C1=C(C)NC(C)=C(C(=O)OC)C1c1cc2ccccc2n2nnnc12
growth inhibition [%]: 47.4

Q: What value of measured growth inhibition is listed for Nc1nc(O)cc(=O)[nH]1 ?
A: -3.25

Q: What value of measured growth inhibition is listed for COc1cc(C(=O)CCCC(=O)O)cc(OC)c1OC ?
A: 5.3

Q: What value of measured growth inhibition is listed for CS(=O)(=O)N1C=CC2C(C=C1)C1(c3ccccc3)OC2(c2ccccc2)c2ccccc21 (stereo unspecified) ?
A: -19.5

Q: What value of measured growth inhibition is listed for CCCCOCC(=O)NC1CCCCC1 ?
A: 33.6

Q: What value of measured growth inhibition is listed for N#Cc1cccc(N2C(=O)c3ccc(C(=O)c4ccc5c(c4)C(=O)N(c4cccc(C#N)c4)C5=O)cc3C2=O)c1 ?
A: -12.3

Q: What value of measured growth inhibition is listed for Clc1ccc(SCCCCSc2ccc(Cl)cc2)cc1 ?
A: 10.8

Q: What value of measured growth inhibition is listed for O=C1c2cccc3c([N+](=O)[O-])ccc(c23)C(=O)N1CCc1ccccn1 ?
A: 26.6

Q: What value of measured growth inhibition is listed for COC(=O)C(CC(=O)C=[N+]=[N-])NC(=O)C(Cl)Cl (stereo unspecified) ?
A: -8.95

###

- testProtocol: NCI Yeast Anticancer Drug Screen. Data for the rad50 strain (AID 155);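 also: 0% = growth of vehicle-only cultures of the same strain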
- particulars: S. cerevisiae rad50 strain growth inhibition; at 50.0 µM; hits give high values
Compounds without any hit were thinned out: in the full panel of roughly 79,000, 15% have a hit.
The entries below are paired with their reported growth inhibition.
Please reply with the bare figure in % and do not write the unit itself.

recordSmiles: CC(C)OCCCNc1ncnc2c1cnn2-c1ccc(Cl)cc1
unitOfMeasure: %
observed: 3.55
--
recordSmiles: CCOC(=O)c1ccc(NC(=O)CNC2CCCCC2)cc1
unitOfMeasure: %
observed: -0.05
--
recordSmiles: O=P(c1ccccc1)(c1ccccc1)c1ccccc1OCc1cccc(COc2ccccc2P(=O)(c2ccccc2)c2ccccc2)n1
unitOfMeasure: %
observed: -7.05
--
recordSmiles: C[C@@H]1C[C@H]2[C@@H]3CCC4=CC(=O)C=C[C@]4(C)[C@@]3(F)[C@@H](O)C[C@]2(C)[C@@]1(O)C(=O)CO
unitOfMeasure: %
observed: 11.8

Now consider a different molecule.
Q: What value of measured growth inhibition is listed for c1ccc(C(=C2CCCCCCCCCCCCC2)c2ccccc2)cc1 ?
A: -25.2

###

- testProtocol: NCI Yeast Anticancer Drug Screen. Data for the sgs1 mgt1 strain (AID 161);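 also: 0% = growth of cultures given vehicle only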
- particulars: S. cerevisiae sgs1 mgt1 strain, at 50.0 µM, hits give high values
Compounds without any hit were thinned out: in the full panel of roughly 79,000, 15% have a hit.
# growth inhibition >= 10% gives fulfilled, anything below gives not fulfilled

Please review the entries below; each comes with its answer.
compound: c1ccc(C2CCOCO2)cc1 (stereo not drawn)
classAssignment: fulfilled

compound: FC(F)(F)c1cccc(NC(=S)Nc2ccccc2S)c1
classAssignment: fulfilled

compound: O=C(/C=C/c1cccc([N+](=O)[O-])c1)Nc1cccnc1
classAssignment: fulfilled

compound: COC(=O)c1ccc(Cl)nc1
classAssignment: not fulfilled

compound: CC1(C2=CCCCC2)CCC(=O)NC1=O (stereo not drawn)
classAssignment: not fulfilled

compound: O=C(Nc1ccc(C2=NCCN2)cc1)c1ccc(C(=O)Nc2ccc(C3=NCCN3)cc2)cc1
classAssignment: not fulfilled

compound: CCSC1=C(SCC)C(=O)C(SCC)=C(SCC)C1=O
classAssignment: fulfilled

compound: C[N+]1(C)CC=C(N2CCOCC2)CC1
classAssignment: not fulfilled

compound: c1c[nH]c(C2Nc3ccccc3CO2)c1 (stereo not drawn)
classAssignment: not fulfilled

compound: CC1=CC(C/C(C)=C/COc2ccc3ccc(=O)oc3c2)OC1=O (stereo not drawn)
classAssignment: fulfilled

Q: Is the recorded value of growth inhibition equal to or greater than 10% for this compound? O[C@@H]1C=C(c2ccccc2)[C@H](c2ccccc2)C1
A: not fulfilled

Q: Is the recorded value of growth inhibition equal to or greater than 10% for this compound? CC(=O)Oc1ccc(OC(C)=O)c([N+](=O)[O-])c1
A: not fulfilled

Q: Is the recorded value of growth inhibition equal to or greater than 10% for this compound? Cc1nc2c(Cl)cc(Cl)cc2c(Cl)c1CCCl
A: fulfilled

###

- testProtocol: NCI Yeast Anticancer Drug Screen. Data for the sgs1 mgt1 strain (AID 161);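 also: 0% = growth of cultures given vehicle only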
- particulars: S. cerevisiae sgs1 mgt1 strain, at 50.0 µM, hits give high values
Compounds without any hit were thinned out: in the full panel of roughly 79,000, 15% have a hit.
readout: growth inhibition (%)
Please reply with the bare figure in % and do not write the unit itself.

compound: CCc1ccccc1NC(=O)COc1ccc(Cl)cc1
growth inhibition [%]: 18.8

Q: What value of measured growth inhibition is listed for Cc1cc(N(CCC#N)CCC#N)ccc1/C(N=Nc1ccc([N+](=O)[O-])cc1)=N\NC(=O)c1cc(Cl)ccc1C(=O)c1ccccc1 ?
A: -15.7

Q: What value of measured growth inhibition is listed for CCOP(=O)(OCC)C([O][Sb]([O]CC(C)Cl)[O]CC(C)Cl)c1ccc(OC)cc1 (stereo unspecified) ?
A: -10.9

Q: What value of measured growth inhibition is listed for C=C(C)COc1c(C)c(C)c(OCC(C)C)c(C)c1C ?
A: -0.75

Q: What value of measured growth inhibition is listed for CCN(CC)CC(=O)N1CCc2c([nH]c3ccccc23)C1c1cccnc1 (stereo unspecified) ?
A: -11.6

Q: What value of measured growth inhibition is listed for COc1ccc(/C(C)=N/NC(=O)c2ccncc2)c(OC)c1 ?
A: -29.2

Q: What value of measured growth inhibition is listed for CC(=O)OC(OC(C)=O)c1ncccc1C(=O)OC(C)C ?
A: -14.7

Q: What value of measured growth inhibition is listed for Cc1cc[n+](C)c(-c2ccccc2)c1 ?
A: 7

Q: What value of measured growth inhibition is listed for NC(=O)c1ncnc2nc[nH]c12 ?
A: -9

Q: What value of measured growth inhibition is listed for Cn1c(=O)c2ncn(CC(O)COc3ccccc3)c2n(C)c1=O (stereo unspecified) ?
A: 11.8

Q: What value of measured growth inhibition is listed for OCC(O)COCCCCCCCCCCCCCC1C=CCC1 (stereo unspecified) ?
A: -35
